Assay: activity coefficient (dimensionless); of the first substance listed, at infinite dilution; xn = mol fraction of the nth substance listed
Conditions: 313 K; Liquid; Chromatography; x1 = 0
metric: activity coefficient
Could you respond with only the numeric value?

Clc1ccccc1 [chlorobenzene] + CCCC[n+]1ccn(C)c1.O=S(=O)([N-]S(=O)(=O)C(F)(F)F)C(F)(F)F | 1.5

Exam item: What value of activity coefficient has been reported for the following molecule? CCc1ccccc1 [ethylbenzene] + CCCC[n+]1ccn(C)c1.O=S(=O)([N-]S(=O)(=O)C(F)(F)F)C(F)(F)F
Marked response: 1.98

Exam item: Quick check: activity coefficient of Cc1ccc(C)o1 [2,5-dimethylfuran] + CCCCn1cc[n+](C)c1.[Cl-] ?
Marked response: 9.51

Exam item: Using the record for CCCO [propan-1-ol] + CCCC[n+]1ccn(C)c1.O=S(=O)([N-]S(=O)(=O)C(F)(F)F)C(F)(F)F , report its activity coefficient.
Marked response: 1.94

Exam item: Need activity coefficient, item Clc1ccccc1 [chlorobenzene] + CCCCn1cc[n+](C)c1.[Cl-]
Marked response: 3.41

Exam item: What measured activity coefficient goes with c1ccoc1 [furan] + CCCC[n+]1ccn(C)c1.O=S(=O)([N-]S(=O)(=O)C(F)(F)F)C(F)(F)F ?
Marked response: 0.678

Exam item: Given the molecule CO [methanol] + CCCC[n+]1ccn(C)c1.O=S(=O)([N-]S(=O)(=O)C(F)(F)F)C(F)(F)F , what is its reported activity coefficient?
Marked response: 1.26

Exam item: Dear colleague, I am looking for the recorded activity coefficient of the following molecule: CCc1ccco1 [2-ethylfuran] + CCCC[n+]1ccn(C)c1.O=S(=O)([N-]S(=O)(=O)C(F)(F)F)C(F)(F)F
Marked response: 1.47

Exam item: Returns the measured activity coefficient for the input molecule. Input: Cc1ccco1 [2-methylfuran] + CCCCn1cc[n+](C)c1.[Cl-]
Marked response: 3.61

Exam item: Consider the molecule CCO [ethanol] + CCCC[n+]1ccn(C)c1.O=S(=O)([N-]S(=O)(=O)C(F)(F)F)C(F)(F)F and give its measured activity coefficient.
Marked response: 1.6

---

Assay: activity coefficient (dimensionless); of the first substance listed, at infinite dilution; xn = mol fraction of the nth substance listed
Conditions: 353 K; Liquid; Chromatography; x1 = 0
The following molecules are listed with their measured activity coefficient values.
Reply: number alone, nothing else.

Examples from the recorded data:
Cc1ccccc1 [toluene] + CCCC[n+]1ccn(C)c1.O=S(=O)([N-]S(=O)(=O)C(F)(F)F)C(F)(F)F | 1.42
c1ccoc1 [furan] + CCCCn1cc[n+](C)c1.[Cl-] | 1.75
Cc1ccco1 [2-methylfuran] + CCCC[n+]1ccn(C)c1.O=S(=O)([N-]S(=O)(=O)C(F)(F)F)C(F)(F)F | 1.18
c1ccoc1 [furan] + CCCC[n+]1ccn(C)c1.O=S(=O)([N-]S(=O)(=O)C(F)(F)F)C(F)(F)F | 0.739
c1ccccc1 [benzene] + CCCCn1cc[n+](C)c1.[Cl-] | 4.12

Exam item: Item CCCO [propan-1-ol] + CCCCn1cc[n+](C)c1.[Cl-] has what recorded activity coefficient?
Marked response: 0.301

Exam item: I'd like to know its activity coefficient. The molecule in question is CCCO [propan-1-ol] + CCCC[n+]1ccn(C)c1.O=S(=O)([N-]S(=O)(=O)C(F)(F)F)C(F)(F)F
Marked response: 1.4

Exam item: Entry under review: CCO [ethanol] + CCCC[n+]1ccn(C)c1.O=S(=O)([N-]S(=O)(=O)C(F)(F)F)C(F)(F)F . Reported activity coefficient?
Marked response: 1.2

FYI, the data here is from the NIST ThermoML archive (doi:10.1016/j.fluid.2019.01.028).
